- targetOfAssay: HIV-1 MGRM-C-027 envelope glycoprotein (Env) (HIV-1)
- experiment: cell-based or functional assay
For each of the binders below, state its IC50 neutralization.
Report only the number, with the unit µg/mL understood.

Give the measured IC50 neutralization of PGT-126 (antibody, V domains shown) VH: QPQLQESGPGLVEASETLSLTCTVSGDSTAACDYFWGWVRQPPGKGLEWIGGLSHCAGYYNTGWTYHNPSLKSRLTISLDTPKNQVFLKLNSVTAADTAIYYCARFDGEVLVYHDWPKPAWVDLWGRGTLVTVSS VL: QSALTQPPSASGSPGQSISISCTGTSNRFVSWYQQHPGKAPKLVIYGVNKRPSGVPDRFSGSKSGNTASLTVSGLQTDDEAVYYCSSLVGNWDVIFGGGTKLTVL .
1.14

Same question for PGT-123 (antibody, V domains shown) VH: QLHLQESGPGLVKPPETLSLTCSVSGASINDAYWSWIRQSPGKRPEWVGYVHHSGDTNYNPSLKRRVTFSLDTAKNEVSLKLVDLTAADSATYFCARALHGKRIYGIVALGELFTYFYMDVWGKGTAVTVSS VL: SSMSVSPGETAKISCGKESIGSRAVQWYQQKPGQPPSLIIYNNQDRPAGVPERFSASPDFRPGTTATLTITNVDAEDEADYYCHIYDARGGTNWVFDRGTTLTVL please.
0.0169
